test: Kinetic solubility assay (CLND), potassium phosphate buffer pH 6.8; type: physicochemical; details: potassium phosphate buffer, pH 6.8, aqueous buffer, kinetic from dmso stock, pH 6.8, 2% DMSO, 24 hours at ambient temperature
Some compounds, each annotated with its measured solubility at 24 h.
All answers are understood in mg/mL, so give the number only.

Some entries whose results are on file:
[[record]]
compound = "CC(C)Oc1nc2nn(C34COC(C)(C3)C4)cc2cc1C(=O)Nc1cccn([C@@H]2C[C@H]2F)c1=O (single isomer, unassigned)"
measured_value = 0.0019

[[record]]
compound = "CC(C)Oc1nc2nn([C@@H]3CCCOC3)cc2cc1C(=O)Nc1cccn(C2CC2)c1=O"
measured_value = 0.0504

[[record]]
compound = "CC(C)Oc1nc2nn(C34COC(C)(C3)C4)cc2cc1C(=O)Nc1cccn([C@@H]2C[C@@H]2F)c1=O (single isomer, unassigned) [Example 33]"
measured_value = 0.0066

[[record]]
compound = "CC(C)Oc1nc2nn(C[C@@H]3CCOC3)cc2cc1C(=O)Nc1cccn(C2CC2)c1=O"
measured_value = 0.043

[[record]]
compound = "CC12CC(n3cc4cc(C(=O)Nc5cccn([C@@H]6C[C@@H]6F)c5=O)c(OC5CCC5)nc4n3)(CO1)C2 [Example 26]"
measured_value = 0.0016


Query: Given COCC12CC(n3cc4cc(C(=O)Nc5cccn([C@H]6C[C@H]6F)c5=O)c(OC(C)C)nc4n3)(CO1)C2 , state its recorded solubility at 24 h.
Reply: 0.0623

Query: Given COCC12CC(n3cc4cc(C(=O)Nc5cccn([C@H]6C[C@@H]6F)c5=O)c(OC5CCC5)cc4n3)(CO1)C2 (single isomer, unassigned) , state its recorded solubility at 24 h.
Reply: 0.0523

Query: Given CC(C)Oc1nc2nn(C34COC(C)(C3)C4)cc2cc1C(=O)Nc1cccn(C2CC2)c1=O , state its recorded solubility at 24 h.
Reply: 0.0187

====

experiment: Kpuu assay (in vivo brain-to-plasma partition, unbound); conditions: brain (unbound) versus plasma (unbound); intravenous infusion 4 to 24 h; unbound drug partition coefficient; read-out: Brain Kpu,u
Threshold 0.5: Kp strictly smaller gives t, otherwise f.

These recorded examples may help you get a feel for the data.
[[record]]
molecule = "CC(C)Oc1nc2nn(C34COC(CF)(C3)C4)cc2cc1C(=O)Nc1cccn(C2CC2)c1=O"
category_label = "f"

[[record]]
molecule = "CC12CC(n3cc4cc(C(=O)Nc5cccn([C@H]6C[C@H]6F)c5=O)c(OC5CC5)nc4n3)(CO1)C2"
category_label = "t"

[[record]]
molecule = "CC(C)Oc1nc2nn(C34COC(C)(C3)C4)cc2cc1C(=O)Nc1cccn([C@H]2C[C@H]2F)c1=O (single isomer, unassigned)"
category_label = "f"

[[record]]
molecule = "COCC12CC(n3cc4cc(C(=O)Nc5cccn([C@H]6C[C@H]6C)c5=O)c(OC(C)C)nc4n3)(CO1)C2"
category_label = "f"

[[record]]
molecule = "COCC12CC(n3cc4cc(C(=O)Nc5cccn([C@H]6C[C@H]6F)c5=O)c(OC(C)C)nc4n3)(CO1)C2"
category_label = "t"


Query: State whether 0.5 exceeds Kp recorded for COC[C@@]12CC[C@@](n3cc4cc(C(=O)Nc5cccn(C6CC6)c5=O)c(OC(C)C)nc4n3)(CO1)C2 .
Reply: f

Query: State whether 0.5 exceeds Kp recorded for CC(C)Oc1cc2nn(C34COC(CF)(C3)C4)cc2cc1C(=O)Nc1cccn([C@H]2C[C@H]2F)c1=O .
Reply: t

Query: State whether 0.5 exceeds Kp recorded for CC12CC(n3cc4cc(C(=O)Nc5cccn([C@H]6C[C@H]6F)c5=O)c(OC5CCC5)nc4n3)(CO1)C2 .
Reply: f

Query: State whether 0.5 exceeds Kp recorded for CC(C)Oc1nc2nn(C34COC(C)(C3)C4)cc2cc1C(=O)Nc1cccn(C2CC2)c1=O .
Reply: f
